FYI, the data here is from ChEMBL document CHEMBL3991601.

SYSTEM: UniProt:O14976
Sequence (O14976 whole entry): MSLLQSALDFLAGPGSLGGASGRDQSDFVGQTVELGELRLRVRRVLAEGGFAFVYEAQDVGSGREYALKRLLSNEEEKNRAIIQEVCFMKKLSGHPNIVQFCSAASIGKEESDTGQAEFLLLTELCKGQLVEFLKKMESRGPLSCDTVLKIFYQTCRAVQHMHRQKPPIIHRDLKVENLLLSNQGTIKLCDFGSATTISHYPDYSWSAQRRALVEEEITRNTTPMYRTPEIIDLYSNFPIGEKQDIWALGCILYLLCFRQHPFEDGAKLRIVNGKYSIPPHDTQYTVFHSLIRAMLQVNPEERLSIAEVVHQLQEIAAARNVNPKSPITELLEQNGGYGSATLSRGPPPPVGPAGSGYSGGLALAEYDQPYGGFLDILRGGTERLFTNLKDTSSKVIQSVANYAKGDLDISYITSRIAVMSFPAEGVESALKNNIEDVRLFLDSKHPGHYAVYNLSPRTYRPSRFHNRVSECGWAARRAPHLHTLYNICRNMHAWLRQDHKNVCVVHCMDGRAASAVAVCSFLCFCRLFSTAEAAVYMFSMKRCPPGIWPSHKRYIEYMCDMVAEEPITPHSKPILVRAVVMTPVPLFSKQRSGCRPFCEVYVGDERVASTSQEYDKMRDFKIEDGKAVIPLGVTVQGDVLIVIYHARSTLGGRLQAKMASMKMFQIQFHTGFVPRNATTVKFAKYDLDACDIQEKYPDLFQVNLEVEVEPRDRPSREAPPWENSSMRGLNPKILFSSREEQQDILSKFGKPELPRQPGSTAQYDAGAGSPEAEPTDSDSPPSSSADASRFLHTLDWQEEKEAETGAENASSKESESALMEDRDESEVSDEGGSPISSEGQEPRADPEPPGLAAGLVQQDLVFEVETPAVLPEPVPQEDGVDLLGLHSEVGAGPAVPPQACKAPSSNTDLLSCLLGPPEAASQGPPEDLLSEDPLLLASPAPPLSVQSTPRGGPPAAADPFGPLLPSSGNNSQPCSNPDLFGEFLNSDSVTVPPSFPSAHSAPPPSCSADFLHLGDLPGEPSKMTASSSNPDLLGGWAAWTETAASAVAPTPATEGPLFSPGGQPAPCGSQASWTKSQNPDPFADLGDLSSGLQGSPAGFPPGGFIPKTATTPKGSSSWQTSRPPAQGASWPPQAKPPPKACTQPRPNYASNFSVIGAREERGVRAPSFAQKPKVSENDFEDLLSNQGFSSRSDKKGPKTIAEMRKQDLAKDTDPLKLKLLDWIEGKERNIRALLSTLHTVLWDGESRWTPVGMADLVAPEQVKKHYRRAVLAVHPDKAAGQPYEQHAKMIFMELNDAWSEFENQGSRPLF
Calls of active or inactive are those of the source.
Outcomes: True = active, False = inactive

{"COMPOUND": "CN(c1ncccc1CNc1nc(Nc2ccc3c(c2)CC(=O)N3)ncc1C(F)(F)F)S(C)(=O)=O", "CLASS ASSIGNMENT": "False"}
{"COMPOUND": "COc1cc2ncnc3c2cc1OCCCCCN(C)Cc1ccc(Br)cc1N3", "CLASS ASSIGNMENT": "True"}
{"COMPOUND": "C[C@]1(O)C[C@@H](c2nc(-c3ccc4ccc(-c5ccccc5)nc4c3)c3c(N)nccn32)C1", "CLASS ASSIGNMENT": "False"}
{"COMPOUND": "C[C@@H]1COC(Nc2ccc3ncnc(Nc4ccc(OCc5nccs5)c(Cl)c4)c3c2)=N1", "CLASS ASSIGNMENT": "False"}
{"COMPOUND": "Cc1cc(Nc2nc(N[C@@H](C)c3ncc(F)cn3)ncc2Cl)n[nH]1", "CLASS ASSIGNMENT": "False"}
{"COMPOUND": "C=CC(=O)Nc1cc(Nc2nccc(-c3cn(C)c4ccccc34)n2)c(OC)cc1N(C)CCN(C)C", "CLASS ASSIGNMENT": "False"}
{"COMPOUND": "Cc1c(Cn2c(C)nc3c(C(=O)O)cc(N4CCOCC4)cc32)cccc1C(F)(F)F", "CLASS ASSIGNMENT": "False"}
{"COMPOUND": "Cc1cc(-c2cc(OC(=O)c3ccccc3)ccc2Cl)cc2nnc(Nc3ccc(OCCN4CCCC4)cc3)nc12", "CLASS ASSIGNMENT": "True"}
{"COMPOUND": "NC[C@@](O)(c1ccc(Cl)cc1)c1ccc(-c2cn[nH]c2)cc1", "CLASS ASSIGNMENT": "False"}
{"COMPOUND": "Cn1cc(-c2[nH]c3cc(NC(=O)[C@H](N)C4CCCCC4)cc4c3c2C=NNC4=O)cn1", "CLASS ASSIGNMENT": "True"}
{"COMPOUND": "c1cc(OCCN2CCCCC2)cc(-c2n[nH]c3ccc(-c4nc[nH]n4)cc23)c1", "CLASS ASSIGNMENT": "True"}
{"COMPOUND": "CN1CCN(c2nc(C3=C(c4c[nH]c5ccccc45)C(=O)NC3=O)c3ccccc3n2)CC1", "CLASS ASSIGNMENT": "False"}
{"COMPOUND": "COc1cccc2cc(-c3nc([C@H]4CC[C@H](C(=O)O)CC4)n4ncnc(N)c34)[nH]c12", "CLASS ASSIGNMENT": "False"}
{"COMPOUND": "O=C(O)c1ccc2c(c1)nc(Nc1cccc(Cl)c1)c1ccncc12", "CLASS ASSIGNMENT": "True"}
{"COMPOUND": "N#CCNC(=O)c1ccc(-c2ccnc(Nc3ccc(N4CCOCC4)cc3)n2)cc1", "CLASS ASSIGNMENT": "True"}
{"COMPOUND": "CC[C@@](C)(Nc1ccnc(-c2c[nH]c3ncccc23)n1)C(=O)NCC(F)(F)F", "CLASS ASSIGNMENT": "False"}
{"COMPOUND": "O=C(NOC[C@H](O)CO)c1ccc(F)c(F)c1Nc1ccc(I)cc1F", "CLASS ASSIGNMENT": "False"}
{"COMPOUND": "CCc1nc(C(N)=O)c(Nc2ccc(N3CCC(N4CCN(C)CC4)CC3)c(OC)c2)nc1NC1CCOCC1", "CLASS ASSIGNMENT": "True"}
{"COMPOUND": "Cn1c(=O)c(F)c(Nc2ccc(I)cc2F)c2c(=O)n(C[C@@H](O)CO)cnc21", "CLASS ASSIGNMENT": "False"}
{"COMPOUND": "COc1cc2ncnc(Nc3ccc(O)cc3)c2cc1OC", "CLASS ASSIGNMENT": "True"}
{"COMPOUND": "FC(F)(F)c1ccc(CNc2ccc(Cc3c[nH]c4ncc(Cl)cc34)cn2)cn1", "CLASS ASSIGNMENT": "False"}
{"COMPOUND": "NC(=O)c1ccc(N(C(N)=O)c2c(F)cccc2F)nc1-c1ccc(F)cc1F", "CLASS ASSIGNMENT": "False"}
{"COMPOUND": "CCOc1ccn(-c2ccc(F)cc2)c(=O)c1C(=O)Nc1ccc(Oc2ccnc(N)c2Cl)c(F)c1", "CLASS ASSIGNMENT": "False"}
{"COMPOUND": "CCN1CCN(Cc2ccc(Nc3ncc(F)c(-c4cc(F)c5nc(C)n(C(C)C)c5c4)n3)nc2)CC1", "CLASS ASSIGNMENT": "True"}
{"COMPOUND": "C=CC(=O)Nc1cccc(Nc2nc(Nc3ccc(N4CCN(C(C)=O)CC4)cc3OC)ncc2C(F)(F)F)c1", "CLASS ASSIGNMENT": "True"}
{"COMPOUND": "COc1cc(Nc2ncc(F)c(Nc3ccc4c(n3)N(COP(=O)(O)O)C(=O)C(C)(C)O4)n2)cc(OC)c1OC", "CLASS ASSIGNMENT": "False"}
{"COMPOUND": "CC1(COc2ccc3c(c2)ncn3-c2ccc3cccc(N4CCC(N)CC4)c3n2)COC1", "CLASS ASSIGNMENT": "True"}
{"COMPOUND": "CC(C)(O)CC(=O)NCCn1ccc2ncnc(Nc3ccc(Oc4cccc(C(F)(F)F)c4)c(Cl)c3)c21", "CLASS ASSIGNMENT": "False"}
{"COMPOUND": "COc1cccc(Nc2ncnn3ccc(CN4CC[C@@H](N)[C@H](O)C4)c23)c1", "CLASS ASSIGNMENT": "True"}
{"COMPOUND": "O=C(NC[C@H](O)CO)c1ccncc1Nc1ccc(I)cc1F", "CLASS ASSIGNMENT": "False"}
{"COMPOUND": "COc1ccc2c(OCc3nnc4ccc(-c5ccccc5)nn34)ccnc2c1", "CLASS ASSIGNMENT": "False"}
{"COMPOUND": "O=S(=O)(c1cccc2c(O)nccc12)N1CCCNCC1 [HYDROXYFASUDIL]", "CLASS ASSIGNMENT": "False"}
{"COMPOUND": "Cc1cc(C(=O)Nc2cc(Oc3ccc4nc(NC(=O)C5CC5)cn4n3)ccc2C)n(C)n1", "CLASS ASSIGNMENT": "False"}

###

SYSTEM: Serine/threonine-protein kinase D2 (Homo sapiens, UniProt Q9BZL6); note: in the data inactive means no Kd found up to 30 µM
Sequence (Q9BZL6 whole entry): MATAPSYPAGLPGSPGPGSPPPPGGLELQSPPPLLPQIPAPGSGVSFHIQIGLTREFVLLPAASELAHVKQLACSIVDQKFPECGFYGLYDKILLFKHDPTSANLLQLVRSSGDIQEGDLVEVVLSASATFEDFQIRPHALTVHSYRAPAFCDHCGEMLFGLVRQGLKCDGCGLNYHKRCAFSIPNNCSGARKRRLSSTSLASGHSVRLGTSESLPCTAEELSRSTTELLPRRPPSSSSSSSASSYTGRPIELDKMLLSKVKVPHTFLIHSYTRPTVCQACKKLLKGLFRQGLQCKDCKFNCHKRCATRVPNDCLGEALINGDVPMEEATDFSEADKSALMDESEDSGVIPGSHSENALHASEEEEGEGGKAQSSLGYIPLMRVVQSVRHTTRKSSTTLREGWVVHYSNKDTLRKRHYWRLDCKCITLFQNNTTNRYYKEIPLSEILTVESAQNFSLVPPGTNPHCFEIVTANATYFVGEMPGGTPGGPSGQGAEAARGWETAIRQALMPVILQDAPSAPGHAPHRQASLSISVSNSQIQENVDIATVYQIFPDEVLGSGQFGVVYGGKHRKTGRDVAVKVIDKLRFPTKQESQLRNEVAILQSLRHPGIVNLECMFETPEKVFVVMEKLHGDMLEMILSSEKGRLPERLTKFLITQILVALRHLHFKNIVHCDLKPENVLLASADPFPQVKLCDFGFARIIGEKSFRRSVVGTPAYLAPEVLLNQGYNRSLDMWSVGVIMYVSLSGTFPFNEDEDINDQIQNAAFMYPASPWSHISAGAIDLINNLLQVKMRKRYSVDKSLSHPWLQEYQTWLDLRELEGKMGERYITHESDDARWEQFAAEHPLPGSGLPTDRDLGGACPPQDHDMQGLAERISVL
The source made the active and inactive calls.
Classes used: active, inactive

{"COMPOUND": "Cn1cc(-c2[nH]c3cc(NC(=O)[C@H](N)C4CCCCC4)cc4c3c2C=NNC4=O)cn1", "CLASS ASSIGNMENT": "inactive"}
{"COMPOUND": "COCCN1CCN(Cc2ccc(-c3n[nH]c4c3C(=O)c3c(NC(=O)NN5CCOCC5)cccc3-4)cc2)CC1", "CLASS ASSIGNMENT": "active"}
{"COMPOUND": "C=CCn1c(=O)c2cnc(Nc3ccc(N4CCN(C)CC4)cc3)nc2n1-c1cccc(C(C)(C)O)n1", "CLASS ASSIGNMENT": "inactive"}
{"COMPOUND": "COc1cc(Nc2ncc(F)c(Nc3ccc4c(n3)N(COP(=O)(O)O)C(=O)C(C)(C)O4)n2)cc(OC)c1OC", "CLASS ASSIGNMENT": "inactive"}
{"COMPOUND": "C=CCN(/C=C1/C(=O)O[C@H](COC)[C@@]2(C)C1=C(O)C(=O)C1=C2[C@H](OC(C)=O)C[C@]2(C)C(=O)CC[C@@H]12)CC=C", "CLASS ASSIGNMENT": "inactive"}
{"COMPOUND": "Cc1ccc(C(=O)Nc2ccc(Oc3cc4cnn(C)c4cc3-c3cn[nH]c3)c(F)c2)c(=O)n1-c1ccc(F)cc1", "CLASS ASSIGNMENT": "inactive"}
{"COMPOUND": "CCN1CCN(Cc2ccc(Nc3ncc(F)c(-c4cc(F)c5nc(C)n(C(C)C)c5c4)n3)nc2)CC1", "CLASS ASSIGNMENT": "active"}
